- System Tested: SARS-CoV-2 prefusion-stabilized spike protein (SARS-CoV-2-PreS) (SARS-CoV-2, UniProt P0DTC2 14-1208)
- Experiment: Biacore, apparent affinity
Assay Endpoint: Kd

Would you please look over these solved cases?
{"columns": ["Binder", "Kd"],
 "data": [
  ["19C10 VHH-Fc (Fc fusion) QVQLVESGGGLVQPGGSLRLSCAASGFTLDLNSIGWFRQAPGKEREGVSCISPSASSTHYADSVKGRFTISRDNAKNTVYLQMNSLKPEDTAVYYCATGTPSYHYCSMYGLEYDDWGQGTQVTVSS", "< 0.2 nM"],
  ["5A6 VHH-Fc (Fc fusion) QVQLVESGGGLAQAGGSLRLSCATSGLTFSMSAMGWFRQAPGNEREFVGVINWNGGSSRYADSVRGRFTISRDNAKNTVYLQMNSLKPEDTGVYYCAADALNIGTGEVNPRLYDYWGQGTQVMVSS", "< 0.2 nM"],
  ["19B8 VHH (VHH) VHH: QVQLVESGGGLVQAGGSLRLSCAASGRTFTNYAMGWFRQAPGKEREFVAAISWSGGGTNYADSVKGRFTISRDNAKNTVYLQMNSPKPEDTAVYYCATTLGYYGSSSRLYEYWGQGTQVTVSS", "87 nM"],
  ["20D11 VHH (VHH) VHH: QVQLVESGGGLVQAGGSLRLSCAASGRTSSIYSVGWFRQAPGKERELVAGITWSGGTTYYSDSVKGRFTISRDNAKNTVNLQMNNLKPEDTAIYYCAVDRYSMTMSARDYDYWGQGTQVTVSS", "2.2 nM"],
  ["19E10 VHH (VHH) VHH: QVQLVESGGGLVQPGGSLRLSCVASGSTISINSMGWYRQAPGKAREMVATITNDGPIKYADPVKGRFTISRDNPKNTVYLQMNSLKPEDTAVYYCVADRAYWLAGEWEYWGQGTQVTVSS", "0.73 nM"]
]}

Asked: Any idea what its Kd is? The binder is 9B2 VHH-Fc (Fc fusion) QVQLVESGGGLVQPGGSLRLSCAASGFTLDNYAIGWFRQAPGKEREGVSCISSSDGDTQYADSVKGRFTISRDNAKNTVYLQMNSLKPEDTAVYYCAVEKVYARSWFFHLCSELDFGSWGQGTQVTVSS
Given back: < 0.2 nM

Asked: What do you get for 15H1 VHH-Fc (Fc fusion) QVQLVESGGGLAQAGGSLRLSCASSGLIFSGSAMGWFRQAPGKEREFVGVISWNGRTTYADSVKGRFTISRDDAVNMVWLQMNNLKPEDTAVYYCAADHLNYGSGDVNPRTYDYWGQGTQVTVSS ?
Given back: < 0.2 nM

Asked: What do you get for 13C8 VHH-Fc (Fc fusion) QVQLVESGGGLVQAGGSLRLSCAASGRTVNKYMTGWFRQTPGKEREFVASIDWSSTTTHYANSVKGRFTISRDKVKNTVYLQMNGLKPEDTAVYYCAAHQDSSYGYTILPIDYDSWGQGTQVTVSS ?
Given back: < 0.2 nM
